Readings of MIC for the listed compounds
- System: Staphylococcus aureus
- Method: Antibacterial activity against Staphylococcus aureus after 48 hrs by agar well diffusion method
- Type: functional
Please give a number only; it is taken to be in µg/mL.

Smiles structure	Unit name	MIC
[Br-].[Br-].c1cc2nc(c1)C[n+]1ccn(c1)Cc1cc3ccccc3nc1Oc1ccc3ccccc3c1-c1c(ccc3ccccc13)Oc1nc3ccccc3cc1Cn1cc[n+](c1)C2	µg/mL	15
[Br-].[Br-].c1cc2nc(c1)C[n+]1cn(c3ccccc31)Cc1cc3ccccc3nc1Oc1ccc3ccccc3c1-c1c(ccc3ccccc13)Oc1nc3ccccc3cc1Cn1c[n+](c3ccccc31)C2	µg/mL	45

Consider the record given below.
Any idea what its MIC is? The compound is [Br-].[Br-].c1cc2cc(c1)C[n+]1ccn(c1)Cc1cc3ccccc3nc1Oc1ccc3ccccc3c1-c1c(ccc3ccccc13)Oc1nc3ccccc3cc1Cn1cc[n+](c1)C2 15

Recorded values, source ChEMBL document CHEMBL1137000.
